experiment: in vitro; details: mouse, L929 cells
observation type: EC50 at 48 h (nM)
State just the number; it will be interpreted in nM.

Which EC50 at 48 h value belongs to `CC(=O)Nc1nc2ccc(-c3cnc(Cl)c(NC(=O)Cc4ccccc4)c3)cc2s1` ?
760

---

target: Receptor-interacting serine/threonine-protein kinase 1 (Homo sapiens, UniProt Q13546)
observation type: IC50 (nM)
The response must be a number in nM with no trailing unit.

Item `COc1cc(CCc2cc(NC(=O)c3ccc(N4C[C@@H](C)N[C@@H](C)C4)cc3)n[nH]2)cc(OC)c1` with Receptor-interacting serine/threonine-protein kinase 1 (Homo sapiens, UniProt Q13546) - IC50?
12

---

biological target: Receptor-interacting serine/threonine-protein kinase 1 (Homo sapiens); experiment: biochemical
observation type: IC50 (µM)
Quick note: give the figure in µM, leave out the unit.

Looking for the measured IC50 of `O=C(c1ccc(-c2cc3cccnc3[nH]2)cc1)N1CCOCC1` , can you help?
88

---

Target: Receptor-interacting serine/threonine-protein kinase 1 (Homo sapiens, UniProt Q13546)
Sequence (Q13546 whole entry): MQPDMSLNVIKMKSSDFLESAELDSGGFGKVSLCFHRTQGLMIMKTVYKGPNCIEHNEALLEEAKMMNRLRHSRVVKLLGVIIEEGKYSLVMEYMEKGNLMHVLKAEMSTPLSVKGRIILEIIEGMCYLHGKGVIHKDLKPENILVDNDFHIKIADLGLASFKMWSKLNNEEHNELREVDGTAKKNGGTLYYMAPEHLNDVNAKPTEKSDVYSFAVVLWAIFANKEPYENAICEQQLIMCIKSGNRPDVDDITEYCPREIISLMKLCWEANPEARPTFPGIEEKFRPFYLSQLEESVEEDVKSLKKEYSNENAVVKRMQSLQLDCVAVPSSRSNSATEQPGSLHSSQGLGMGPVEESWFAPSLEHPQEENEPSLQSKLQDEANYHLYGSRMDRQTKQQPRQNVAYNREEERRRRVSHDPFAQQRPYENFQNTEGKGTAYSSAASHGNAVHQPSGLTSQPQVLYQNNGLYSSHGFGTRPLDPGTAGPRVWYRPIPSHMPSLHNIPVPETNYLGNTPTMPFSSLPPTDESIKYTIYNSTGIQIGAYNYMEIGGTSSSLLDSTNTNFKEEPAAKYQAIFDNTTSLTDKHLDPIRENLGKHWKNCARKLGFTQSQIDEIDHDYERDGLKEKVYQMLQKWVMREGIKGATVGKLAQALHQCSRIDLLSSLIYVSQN
observation type: IC50 (nM)
I only need the number, in nM, no unit after it.

molecule | study system | observation type | measured result
O=C(NCCc1ccccc1Cl)c1cn(-c2ccccc2)nn1 | Receptor-interacting serine/threonine-protein kinase 1 (Homo sapiens, UniProt Q13546) | IC50 | 250
O=C(NC1CCOCC1)c1nsc2ncc(-c3ccc4nc(NC(=O)C5CC5)sc4c3)cc12 | Receptor-interacting serine/threonine-protein kinase 1 (Homo sapiens, UniProt Q13546) | IC50 | 5.8

Please find the next molecule below.
Form field: reported IC50 of Cc1ccc(F)c(NC(=O)Nc2ccc(-c3cccc4[nH]nc(N)c34)cc2)c1 [LINIFANIB]
95

---

molecular target: Receptor-interacting serine/threonine-protein kinase 1 (Homo sapiens)
observation type: pIC50
# pIC50 = -log10(concentration in molar units)

Which measured pIC50 belongs to `Cn1cc(-c2ccc3c(c2)CCN3C(=O)Cc2ccc(C(F)(F)F)cn2)c2c(N)ncnc21` , tested on Receptor-interacting serine/threonine-protein kinase 1 (Homo sapiens)?
8.54
